Source listed as ChEMBL document CHEMBL1156829.

- Assay Remarks: NOVARTIS: Cytotoxicity against human hepatocellular carcinoma cell line (Huh7)
- Assay type: toxicity, cell-based, Huh-7
- Assay Conditions: Huh7 cells (hepatocellular carcinoma cell line)
Observation Type: CC50

>>> reported_result("Cc1ccc(N=C2C(=O)Nc3ccc(C)c(Br)c32)c(O)c1")
"> 10 µM"
>>> reported_result("COc1ccccc1CN1CCc2nc(-c3cnccn3)sc2C1")
"23 µM"
>>> reported_result("CC(=O)Nc1ccc(NC2=C(N3CCCCC3)C(=O)c3ccccc3C2=O)cc1")
"> 100 µM"
>>> reported_result("CCCN1CCC(N2C[C@@H](NCCC3=C(C)CCCC3(C)C)C[C@H]2C(=O)NCC)CC1")
"35.1 µM"
>>> reported_result("O=C(Nc1ccc(O)cc1)c1cccc(S(=O)(=O)N2CCCCC2)c1")
"> 100 µM"
>>> reported_result("O=C(COc1ccccc1Cl)OCc1cc(=O)n2nc(C3CC3)sc2n1")
"> 10 µM"
>>> reported_result("COc1cc(NC(C)CCCN(Cc2ccccc2OC)C(=O)c2cccc(Br)c2)c2ncccc2c1 (stereo unspecified)")
"> 6.43 µM"
>>> reported_result("CC(=O)NC(CO)C(O)c1ccc([N+](=O)[O-])cc1 (stereo unspecified)")
"> 100 µM"
>>> reported_result("COC1=CC(C)=C[C@@H](C)[C@@H](O)[C@H](C)CC(C)=CC=C[C@H](OC)[C@@H](C(C)C(O)[C@H](C)[C@@]2(O)C[C@@H](O)[C@H](C)[C@@H](C(C)C)O2)OC1=O (stereo partly specified)")
"> 10 µM"
>>> reported_result("O=C(CNC(=O)c1ccccc1)Oc1ccc(Cl)cc1")
"> 10 µM"
>>> reported_result("CCN1C(=Cc2sc3ccc(O)cc3[n+]2CC)C=Cc2cc(C)ccc21")
"5.79 µM"
>>> reported_result("CCCCNc1c2c(c(C#N)c3nc4ccccc4n13)CCC2")
"> 100 µM"
>>> reported_result("CCCNC1=C(N(C(C)=O)c2cccc(F)c2)C(=O)c2ccccc2C1=O")
"5.39 µM"
>>> reported_result("CCOc1ccccc1-n1c(C(C)N(CCc2ccccc2)C(=O)c2ccc(Br)cc2)nc2ccccc2c1=O (stereo unspecified)")
"> 10 µM"
>>> reported_result("O=C(Cn1c(=O)oc2cc(S(=O)(=O)NCc3ccccc3)ccc21)NC1CCCCC1")
"> 10 µM"
>>> reported_result("CCOC(=O)N1CCN(C(=O)CSc2nc(-c3ccc(Cl)cc3)cn2-c2ccc(C)cc2)CC1")
"> 10 µM"
>>> reported_result("COC(=O)c1c(-c2c(Cl)cccc2Cl)noc1C=CNc1ccccc1")
"76.8 µM"
>>> reported_result("CCOc1ccc(NC(=O)NC(Cc2c[nH]c3ccccc23)C(=O)N2CCN(C(=O)NC(C)C)C(C)C2)cc1 (stereo unspecified)")
"> 10 µM"
>>> reported_result("O=C(ON(C(=O)c1ccc(F)cc1)C1C2CC3CC(C2)CC1C3)c1ccc(F)cc1 (stereo unspecified)")
"> 10 µM"
>>> reported_result("Cc1ccc(C)c(Nc2nc(NCc3ccccc3)c3ccccc3n2)c1")
"14.5 µM"
>>> reported_result("Cc1cc(NC(=O)c2ccc(S(=O)(=O)N(Cc3ccccc3)C(C)C)cc2)no1")
"> 100 µM"
